TEST SYSTEM: human FLAP (Homo sapiens (Human))
Sequence (P20292 whole entry): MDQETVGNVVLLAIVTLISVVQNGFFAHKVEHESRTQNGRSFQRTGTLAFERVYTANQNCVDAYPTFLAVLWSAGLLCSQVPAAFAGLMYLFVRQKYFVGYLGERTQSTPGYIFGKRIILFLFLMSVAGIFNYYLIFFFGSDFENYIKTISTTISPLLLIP
ASSAY COMMENT: FLAP binding assay (HTRF format)
CONDITION NOTES: human FLAP-containing Sf-9 membranes, 25 nM HTRF ligand, 2 h; average of runs; read-out: FLAP Binding wild type HTRF Ki
Structures can show the parent of a compound that is named as a salt.
MEASUREMENT NAME: log10(Ki) (log10 of the value in nM)
# values: log10(Ki), units nM

Consider the worked cases shown below.
[
  {
    "MOLECULE": "Cn1ccc(COc2cc(F)c3nc([C@@H]4CCCC[C@@H]4C(=O)O)n(Cc4ccc(Br)cc4F)c3c2)n1 (racemic)",
    "TEST SYSTEM": "human FLAP (Homo sapiens (Human))",
    "log10(Ki)": 0.38
  },
  {
    "MOLECULE": "Cc1ccc(Cn2c(C3[C@@H](C(=O)O)C3(C)C)nc3c(F)cc(OCc4ccc(C)cn4)cc32)cc1 (mixture of isomers) [Example 64, TFA salt]",
    "TEST SYSTEM": "human FLAP (Homo sapiens (Human))",
    "log10(Ki)": 2.46
  },
  {
    "MOLECULE": "Cn1ccc(COc2cc(F)c3nc([C@@H]4CCCC[C@@H]4C(=O)O)n(Cc4ccc(Br)cc4)c3c2)n1 (racemic)",
    "TEST SYSTEM": "human FLAP (Homo sapiens (Human))",
    "log10(Ki)": 0.04
  },
  {
    "MOLECULE": "Cn1ccc(COc2ccc3nc([C@@H]4CCCC[C@@H]4C(=O)O)n(Cc4ccc(N5CC(F)(F)C5)cc4)c3c2)n1 (racemic)",
    "TEST SYSTEM": "human FLAP (Homo sapiens (Human))",
    "log10(Ki)": 1.51
  },
  {
    "MOLECULE": "Cn1ccc(COc2ccc3nc(CC(C)(C)C(=O)O)n(Cc4ccc(Br)cc4)c3c2)n1",
    "TEST SYSTEM": "human FLAP (Homo sapiens (Human))",
    "log10(Ki)": 2.63
  }
]

Query: If you can, please state the reported log10(Ki) value of Cc1ccc(Cn2c([C@@H]3[C@H](C(=O)O)C3(C)C)nc3ccc(OCc4ccc(C)cn4)cc32)cc1 (racemic) .
Result: 2.18

Query: Any idea what log10(Ki) was measured for Cc1cnc(COc2ccc3nc(CC(C)(C)C(=O)O)n(Cc4ccc(N5CCC(C(C)(C)C)CC5)cc4)c3c2)c(F)c1 ?
Result: 1.18

Query: Can you look up the measured log10(Ki) of CCC(CC)(Cc1nc2ccc(OCc3ccc(C)cn3)cc2n1Cc1cccc(Br)c1)C(=O)O for me?
Result: 1.75

Query: Would you mind telling me what log10(Ki) value was observed for Cc1cnc(COc2ccc3nc([C@H]4CCCC[C@H]4C(=O)O)n(Cc4ccc(N5CCC(F)CC5)cc4)c3c2)c(F)c1 (relative stereo) ?
Result: -0.38

Query: I am curious: what log10(Ki) value has been reported for Cc1cnc(COc2ccc3nc(CC(C)(C)C(=O)O)n(Cc4ccc(-c5ccc(C(F)(F)F)cc5)cc4F)c3c2)c(F)c1 ?
Result: 0.71

Query: For the molecule Cn1ccc(COc2ccc3nc([C@@H]4CCCC[C@@H]4C(=O)O)n(Cc4ccc(OC(F)(F)F)cc4Br)c3c2)n1 (racemic) [Example 104, HCl salt] , what log10(Ki) is on record?
Result: 1.48

Query: Record request: log10(Ki) value, item Cc1cccc(COc2ccc3nc(CC(C)(C)C(=O)O)n(Cc4ccc(Br)cc4)c3c2)n1
Result: 3.35

Query: Entry Cc1cnc(COc2ccc3nc(CC(C)(C)C(=O)O)n(Cc4c(F)cc(Br)cc4F)c3c2)c(F)c1 has what log10(Ki)?
Result: 1.18

Query: // query log10(Ki) value for entry Cc1ccc(COc2ccc3nc(C4CCCC[C@H]4C(=O)O)n(Cc4ccc(C#N)cc4)c3c2)nc1 (mixture of isomers) [Example 37, TFA salt]
Result: 1.41

Query: Which log10(Ki) is listed for Cc1ccc(COc2cc(Cl)c3nc(CC4(C(=O)O)CCCC4)n(Cc4ccc(Br)cc4)c3c2)nc1 ?
Result: 1.38

Query: Name the reported log10(Ki) value associated with the molecule Cc1ccc(Cn2c(CC(C)(C)C(=O)O)nc3ccc(OCc4ncc(C)cc4F)cc32)c(F)c1
Result: 2.20

Query: // log10(Ki) lookup, key: Cc1ccc(COc2cc(F)c3nc(CC4(C(=O)O)CCCC4)n(Cc4ccc(Br)cc4)c3c2)nc1
Result: 0.78
